Entry source: a melting point compilation (Tetko et al.; mined from patent text by program, amines drawn as free bases though some values may be those of a salt)

Each entry below carries its reported melting point.

Examples with their reported melting point follow.
Cc1sc(Cl)cc1C1(c2cccc(-c3cncnc3)c2)N=C(N)N(C)C1=O (stereo not given) :: 141 to 149 °C
O=C(NN1CCNC1=O)c1c[nH]c2cc(O)c(O)cc2c1=O :: > 300 °C
CCCCCCCCCCCCCCOc1ccc(NC(=O)Nc2cccc(CBr)c2)cc1 :: 164 to 169 °C
Cn1cc(C2=C(c3cccc(N4CCC(O)CC4)c3)C(=O)NC2=O)c2ccccc21 :: 136 to 141 °C

Shift focus to the following entry.
# input What measured melting point goes with CCCCCCCCCCCC(=O)Oc1ccc2nc(S(N)(=O)=O)sc2c1 ?
# output 112 to 114 °C

###

Each entry below carries its reported melting point.

Cc1ccc(N2CCN(Cc3ccc4c(c3)NCCN4)CC2)cc1C :: 148 to 149 °C
CS(=O)(=O)c1ccc(-c2oc(C(=O)O)cc(=O)c2Oc2ccc(Cl)cc2)cc1 :: 263 °C
CC(=O)Nc1ccccc1S(=O)(=O)NCCCCN1CCN(c2ncccn2)CC1 :: 99 °C
CC(C)Oc1cc(CCCOc2ncccc2CC(=O)O)n(Cc2ccc(Cl)cc2OC(C)C)n1 :: 82 to 84 °C
O=C(O)c1ccc2c(c1)C(=Cc1ccccc1)OC2=O :: 261 °C

# input What measured melting point goes with Cc1cc(=O)[nH]c2ccc(Cn3ccnc3)cc12 ?
# output 266 °C

# input What measured melting point goes with CCCCCCCCc1ccc(CCC(CC)(COC(C)=O)NC(C)=O)cc1 (stereo not given) ?
# output 107 to 109 °C

# input What measured melting point goes with CCCCC1(N(C)C)CCC2(CC1)c1[nH]c3ccccc3c1CCN2C(=O)NCC (stereo not given) ?
# output 182 to 184 °C

# input What measured melting point goes with COc1ccc(C(CC(=O)O)c2ccc(OC)cc2)cc1 ?
# output 132 to 134 °C

# input What measured melting point goes with c1ccc(C2CC(Cc3ccncc3)(Cc3ccncc3)c3ccccc32)cc1 (stereo not given) ?
# output 210 to 225 °C

# input What measured melting point goes with COCOc1cc(Cl)ccc1-c1cc(-c2cccc([N+](=O)[O-])c2)c(C#N)c(N)n1 ?
# output 196 to 198 °C

# input What measured melting point goes with Fc1cc2ccc(CBr)nc2cc1F ?
# output 113 to 115 °C

# input What measured melting point goes with COc1cc2c3c4c(c(-c5ccccc5)cc3n(C)c2cc1CCCO)C(=O)NC4=O ?
# output 105 to 110 °C

# input What measured melting point goes with COc1ccc(N(C(=O)CCl)c2c(Cl)cccc2Cl)cc1 ?
# output 105 to 106 °C

# input What measured melting point goes with COC(=O)Cc1ccc2c(c1)C(OC)=Cc1ccccc1C2 ?
# output 72 to 73 °C

# input What measured melting point goes with Cn1c(=O)oc2cc(C(O)CCN3CCOCC3)ccc21 (stereo not given) ?
# output 132 °C

# input What measured melting point goes with CCCC(CCC)n1c(CC)nc2c1C(=O)N(C)CN2c1ccc(Cl)cc1Cl ?
# output 117 to 118 °C

# input What measured melting point goes with O=C(NC1CC1)c1ccc(-c2ccc3nnn(Cc4ccc5ncccc5c4)c3n2)cc1Cl ?
# output 197 to 199 °C

# input What measured melting point goes with COP(=O)(Cc1cccc(CP(=O)(OC)OC)c1F)OC ?
# output 116 to 118 °C

# input What measured melting point goes with CCC(CC)NC(=O)C[C@@H](C(=O)NC[C@@H](O)[C@@H](N)Cc1ccccc1)C(C)(C)C ?
# output 155 to 158 °C
